Please respond with reported absorption maximum for every item in the list.
# test description: solvent given as SMILES
# condition details: in ClC(Cl)Cl
Dear colleague, please return just the value in nm, with no unit written.

# input If you can, please state the reported absorption maximum value of CCCCCC(CC)C1(C(CC)CCCCC)c2ccccc2-c2ccc(C#Cc3cc(C#Cc4ccc5c(c4)C(C(CC)CCCCC)(C(CC)CCCCC)c4ccccc4-5)c4ccc5c(C#Cc6ccc7c(c6)C(C(CC)CCCCC)(C(CC)CCCCC)c6ccccc6-7)cc(C#Cc6ccc7c(c6)C(C(CC)CCCCC)(C(CC)CCCCC)c6ccccc6-7)c6ccc3c4c65)cc21 (configuration not stated) .
# output 491

# input If you can, please state the reported absorption maximum value of "N#Cc1ccc(-c2cc(-c3ccc(N4CCCC4)cc3)nc(-c3ccccc3)n2)cc1" .
# output 385

# input If you can, please state the reported absorption maximum value of CC(C)(C)C1Nc2c(Br)cc(Br)cc2C(=O)N1Cc1ccccc1 (configuration not stated) .
# output 359

# input If you can, please state the reported absorption maximum value of "N#CC(C#N)=Cc1cn(-c2ccccc2)nc1-c1ccccc1" .
# output 359

# input If you can, please state the reported absorption maximum value of "COc1ccc(-c2oc3cccc4c5c(-c6ccc(OC)c(OC)c6)c(=N)oc6cccc(c2c34)c65)cc1OC" .
# output 410

# input If you can, please state the reported absorption maximum value of CCCCC1(c2ccccc2)Nc2ccccc2N=C1c1ccccc1 (configuration not stated) .
# output 386

# input If you can, please state the reported absorption maximum value of O=[N+]([O-])c1ccc(F)cc1C1CC(c2cccc3ccccc23)=NN1c1ccccc1 (configuration not stated) .
# output 363

# input If you can, please state the reported absorption maximum value of "N#CC1=CC(/C=C/c2ccccc2)=CC(C#N)=P1(c1ccccc1)c1ccccc1" .
# output 506

# input If you can, please state the reported absorption maximum value of "COc1ccc2c(c1)CCc1c(-c3ccccc3)c3n(c1-2)[B-](F)(F)[N+]1=C2C(=C(c4ccccc4)C1=N3)CCc1ccccc12" .
# output 723

# input If you can, please state the reported absorption maximum value of "CCCCCCc1ccc(-n2c3c4cccc(OC)c4nc(-c4ccc(OC)cc4)c3c3c2c2c(-c4ccc(OC)cc4)nc4c(OC)cccc4c2n3-c2ccc(CCCCCC)cc2)cc1" .
# output 317

# input If you can, please state the reported absorption maximum value of "CCN(CC)c1ccc2cc(-c3ccc(-c4ccc5ccc6c(-c7ccc(-c8cc9ccc(N(CC)CC)cc9oc8=O)cc7)ccc7ccc4c5c76)cc3)c(=O)oc2c1" .
# output 412

# input If you can, please state the reported absorption maximum value of "O=S(=O)(/N=c1\oc2cccc3c4c(-c5ccccc5)oc5cccc(c(c1-c1ccccc1)c23)c54)C(F)(F)F" .
# output 460

# input If you can, please state the reported absorption maximum value of "CC1(C)CC(NCc2ccc3ccc4cccc5ccc2c3c45)CC(C)(C)N1[O]" .
# output 344

# input If you can, please state the reported absorption maximum value of "CN(C)c1ccc(-c2cc(-c3ccc(C#N)cc3)nc(-c3ccccc3)n2)cc1" .
# output 376

# input If you can, please state the reported absorption maximum value of "Cc1cc(C)c(C2=C3C=CC(c4csc5ccccc45)=[N+]3[B-](F)(F)n3c2ccc3-c2csc3ccccc23)c(C)c1" .
# output 581

# input If you can, please state the reported absorption maximum value of "CC1=[N+]2C(=C(c3ccc(C#N)cc3)c3ccc(C)n3[B-]2(F)F)C=C1" .
# output 519

# input If you can, please state the reported absorption maximum value of "O=C(O)c1ccccc1Nc1ccccc1" .
# output 357

# input If you can, please state the reported absorption maximum value of "CC1(C)CC[N+]2=c3c(cc4c(c31)Oc1cc3c(cc1C=4c1ccccc1C(=O)O)C(c1ccccc1C(=O)O)=c1cc4c5c(c1O3)C(C)(C)CC[N+]=5CCC4)CCC2" .
# output 611

# input If you can, please state the reported absorption maximum value of "CC(C)(C)c1ccc(Oc2cc3c4c(cc(Oc5ccc(C(C)(C)C)cc5)c5c6c(Oc7ccc(C(C)(C)C)cc7)cc7c8c(cc(Oc9ccc(C(C)(C)C)cc9)c(c2c45)c86)C(=O)OC7=O)C(=O)OC3=O)cc1" .
# output 581

# input If you can, please state the reported absorption maximum value of "CC1=CC(C)=[N+]2C1=C(C1=C(C)C3=C(C)c4c(C)cc(C)n4[B-](F)(F)[N+]3=C1C)c1c(C)cc(C)n1[B-]2(F)F" .
# output 516

# input If you can, please state the reported absorption maximum value of CN(CC(O)c1cccc(O)c1)c1ccc([N+](=O)[O-])c(C2CC(c3cccc4ccccc34)=NN2c2ccccc2)c1 (configuration not stated) .
# output 369

# input If you can, please state the reported absorption maximum value of CC(C)(C)C1Nc2ccccc2C(=O)N1c1ccccc1 (configuration not stated) .
# output 344
